Target: Prostaglandin G/H synthase 2 (Mus musculus)
Sequence (Q05769 whole entry): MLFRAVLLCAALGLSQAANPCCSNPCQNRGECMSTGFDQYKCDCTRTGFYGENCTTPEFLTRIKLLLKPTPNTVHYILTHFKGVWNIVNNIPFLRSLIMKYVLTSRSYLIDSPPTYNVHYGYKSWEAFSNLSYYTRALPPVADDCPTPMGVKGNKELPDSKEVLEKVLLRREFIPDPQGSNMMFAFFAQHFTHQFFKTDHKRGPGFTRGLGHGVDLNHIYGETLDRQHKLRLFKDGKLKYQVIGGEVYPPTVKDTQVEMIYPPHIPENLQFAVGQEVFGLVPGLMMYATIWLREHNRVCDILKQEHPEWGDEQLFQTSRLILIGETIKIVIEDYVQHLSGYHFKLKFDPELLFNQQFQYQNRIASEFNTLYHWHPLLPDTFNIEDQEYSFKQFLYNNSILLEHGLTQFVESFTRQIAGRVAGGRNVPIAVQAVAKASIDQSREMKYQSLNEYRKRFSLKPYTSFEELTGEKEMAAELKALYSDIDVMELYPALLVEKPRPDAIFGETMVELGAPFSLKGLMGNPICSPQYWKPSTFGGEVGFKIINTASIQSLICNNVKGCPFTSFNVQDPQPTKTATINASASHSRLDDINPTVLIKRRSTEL
Assay: Inhibition of COX-2 mediated PGE2 production in LPS-induced mouse RAW264.7 cells
REPORTED ENDPOINT: IC50

Consider the following illustrative entries.
{"columns": ["SMILES RECORD", "MEASURED"],
 "data": [
  ["NS(=O)(=O)c1ccc(/C=C/c2ccsc2)cc1", "440 nM"],
  ["NS(=O)(=O)c1ccc(/C=C/c2ccco2)cc1", "18300 nM"],
  ["CS(=O)(=O)c1ccc(/C=C/c2cccs2)cc1", "380 nM"]
]}

Lab note: Prostaglandin G/H synthase 2 (Mus musculus) assay, enter IC50 for `NS(=O)(=O)c1ccc(/C=C/c2ccoc2)cc1` here
> 50000 nM

Find IC50 for `CS(=O)(=O)c1ccc(/C=C/c2ccco2)cc1` on Prostaglandin G/H synthase 2 (Mus musculus) and write it down.
1180 nM

Enter measured IC50, system Prostaglandin G/H synthase 2 (Mus musculus), for the compound shown: `CS(=O)(=O)c1ccc(/C=C/c2ccsc2)cc1`
520 nM

Please respond with reported IC50 (system Prostaglandin G/H synthase 2 (Mus musculus)) for `NS(=O)(=O)c1ccc(/C=C/c2cccs2)cc1` .
13 nM

Using Prostaglandin G/H synthase 2 (Mus musculus) as the test system, report measured IC50 of `CS(=O)(=O)c1ccc(/C=C/c2ccoc2)cc1` .
> 50000 nM
